assayName: Inhibition baboon liver mitochondrial MAOB
Parameters: species or system Papio hamadryas
Rule: measured Ki below 3 µM gets y; anything equal to or greater than 3 µM gets n.

[
  {
    "smilesRepresentation": "Cn1c(=O)c2c(nc(/C=C/c3ccc(Cl)c(Cl)c3)n2C)n(C)c1=O",
    "discreteLabel": "y"
  },
  {
    "smilesRepresentation": "COc1ccc(/C=C/c2nc3ccccc3n2C)cc1",
    "discreteLabel": "n"
  },
  {
    "smilesRepresentation": "Cn1c(/C=C/c2ccc(C(F)(F)F)cc2)nc2ccccc21",
    "discreteLabel": "y"
  },
  {
    "smilesRepresentation": "Cn1c(=O)c2c(nc(/C=C/c3cc(C(F)(F)F)cc(C(F)(F)F)c3)n2C)n(C)c1=O",
    "discreteLabel": "y"
  },
  {
    "smilesRepresentation": "Cn1c(=O)c2c(nc(/C=C/c3cccs3)n2C)n(C)c1=O",
    "discreteLabel": "y"
  },
  {
    "smilesRepresentation": "Cn1c(/C=C/c2ccc(Cl)cc2)nc2ccccc21",
    "discreteLabel": "y"
  },
  {
    "smilesRepresentation": "Cn1c(=O)c2c(nc(/C=C/c3ccco3)n2C)n(C)c1=O",
    "discreteLabel": "n"
  },
  {
    "smilesRepresentation": "Cn1c(=O)c2c(nc3c4ccccc4ncn32)n(C)c1=O",
    "discreteLabel": "n"
  },
  {
    "smilesRepresentation": "Cn1c(/C=C/c2ccc(Br)cc2)nc2ccccc21",
    "discreteLabel": "y"
  },
  {
    "smilesRepresentation": "Cn1c(=O)c2c(nc(/C=C/c3cccc(Br)c3)n2C)n(C)c1=O",
    "discreteLabel": "y"
  },
  {
    "smilesRepresentation": "Cn1cnc2ccccc21",
    "discreteLabel": "n"
  },
  {
    "smilesRepresentation": "Cn1c(/C=C/c2ccccc2)nc2ccccc21",
    "discreteLabel": "n"
  },
  {
    "smilesRepresentation": "Cc1nc2ccccc2[nH]1",
    "discreteLabel": "n"
  },
  {
    "smilesRepresentation": "Cn1c(/C=C/c2ccc(F)cc2)nc2ccccc21",
    "discreteLabel": "n"
  },
  {
    "smilesRepresentation": "Cc1ccc(/C=C/c2nc3ccccc3n2C)cc1",
    "discreteLabel": "n"
  },
  {
    "smilesRepresentation": "Cn1c(=O)c2c(nc(/C=C/c3ccsc3)n2C)n(C)c1=O",
    "discreteLabel": "n"
  }
]
